test: drug combination growth inhibition, ovarian cancer – cell-based, oncology-focused library, rucaparib conditional, profiling panel (AID 1508598); conditions: patient-derived ovarian cancer cells, CellTiter-Glo viability, 144 h; at 5 µM; OCI-P5x cells; with rucaparib 20 µM; 100% = cells with rucaparib alone
Activity calls are given as the source filed them.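 The calls were made as follows: active = normalized viability below 100% at a tested concentration; inactive = the rest.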
Valid outcomes are listed here; reply with one: active, inactive

1. O=NN(CCCl)C(=O)NC1CCCCC1
active
2. CCC(C)n1ncn(-c2ccc(N3CCN(c4ccc(OC[C@H]5CO[C@](Cn6cncn6)(c6ccc(Cl)cc6Cl)O5)cc4)CC3)cc2)c1=O (stereo partly specified)
active
3. O=c1c(O)c(-c2ccc(O)c(O)c2)oc2cc(O)cc(O)c12
active
4. Cc1nc(-c2ccc(OCC(C)C)c(C#N)c2)sc1C(=O)O
inactive
5. COc1cc2c(Nc3ccc(Br)cc3F)ncnc2cc1OCC1CCN(C)CC1
active
6. Cc1nc2ccc(CN(C)c3ccc(C(=O)N[C@@H](CCC(=O)O)C(=O)O)s3)cc2c(=O)[nH]1
inactive

Would you kindly look at the next entry?
Query: What did the test return for "COc1cc2c(N3CCN(C(=O)Nc4ccc(OC(C)C)cc4)CC3)ncnc2cc1OCCCN1CCCCC1" ?
Response: inactive
